- Tested on: HPV-11
- measurement-protocol: HPV-11 origin replication in HEK 293 cells, qPCR
- Type: cell-based
- run-parameters: HEK293; HPV-11 origin replication in HEK 293 cells, 48 hr, qPCR
- Experimental: An origin-containing plasmid was co-transfected with HPV-11 E1 and E2 protein expression vectors into HEK 293 cells. At 4 hr post-transfection, cells were treated with compound dilutions and the cells were incubated for 48 hr. Replication of the virus origin was detected with DpnI and exonuclease III to remove unreplicated input bacterial plasmid DNA. Remaining replicated DNA was quantified by qPCR. Toxicity was determined by trypan blue exclusion.
Parameter: pEC50. Scope: all listed entries.
# pEC50 = -log10(concentration in molar units)

Below, each entry is followed by its recorded pEC50 result.
- compound: "CCCCCCCCCCCCCCCCCCOCCOP(=O)(COCCn1cnc2c(=O)[nH]c(N)nc21)OCc1ccccc1 (racemic)"
  pEC50: 6.31
- compound: "CCCCCCCCCCCCCCCCCCOCCOP(=O)(CO[C@H](CO)Cn1cnc2c(N)ncnc21)OCc1ccccc1 (stereo partly shown)"
  pEC50: 6.11
- compound: "CCCCCCCCCCCCCCCCCCOCCOP(=O)(CO[C@H](CO)Cn1ccc(N)nc1=O)OCc1ccccc1 (stereo partly shown)"
  pEC50: 5.69

Attention now turns to another entry.
Ask: Recorded pEC50 for CCCCCCCCCCCCCCCCCCOCCOP(=O)(COCCn1cnc2c(N)ncnc21)OCc1ccccc1 (stereo not shown) , please?
Reply: 6.57

###

- measurement-protocol: Antiproliferative activity, neutral red, normal human fibroblasts
- run-parameters: normal human fibroblasts (HFF), monolayer culture
test-readout: CC50 at 4 days (µM)
Please reply with the bare figure in µM and do not write the unit itself.

- molecule: "CCCCCCCCCCCCCCCCCCOCCOP(=O)(CO[C@H](CO)Cn1ccc(N)nc1=O)OCc1ccccc1 (some centres unmarked) [Compound 219]"
  endpoint-unit: "µM"
  CC50 at 4 days: 52

Then this molecule:
Ask: Using the record for CCCCCCCCCCCCCCCCCCOCCOP(=O)(CO[C@H](CO)Cn1cnc2c(N)ncnc21)OCc1ccccc1 (some centres unmarked) [Compound 218] , report its CC50 at 4 days.
Reply: 5.2

###

- measurement-protocol: Toxicity in HEK 293 cells by trypan blue exclusion (HPV-16 example)
- Format: cell-based
- run-parameters: human
test-readout: CC50

Ask: Endpoint output: CC50 of CCCCCCCCCCCCCCCCCCOCCOP(=O)(COCCn1cnc2c(=O)[nH]c(N)nc21)OCc1ccccc1 (racemic) . Value?
Reply: > 10 µM

###

- System: HIV-1LAI
- measurement-protocol: HIV antiviral assay in MT-2 cells, p24 reduction
- run-parameters: HIV-1 infected MT-2 cells, p24 reduction, four days
// reported EC50 per item

- compound: "CCCCCCCCCCCCCCCCCCOC[C@H](COP(=O)(CO[C@H](CO)Cn1cnc2c(N)ncnc21)OCc1ccccc1)OCc1ccccc1 (some centres unmarked)"
  measurement-target: "HIV-1LAI"
  measured: "50 nM"

Now for a further compound.
Ask: Which measured EC50 value corresponds to CCCCCCCCCCCCCCCCCCOC[C@H](COP(=O)(CO[C@H](CO)Cn1ccc(N)nc1=O)OCc1ccccc1)OCc1ccccc1 (some centres unmarked) ?
Reply: 2200 nM

###

- Tested on: human foreskin fibroblast (HFF) cells
- measurement-protocol: Cytotoxicity in HFF cells in parallel to HSV-1 assay
- run-parameters: HFF cells, in parallel to HSV-1 assay
test-readout: CC50 (µM)
Record the value in µM, omitting the unit from your answer.

Ask: // query CC50 value for entry CCCCCCCCCCCCCCCCCCOC[C@H](COP(=O)(CO[C@H](CO)Cn1ccc(N)nc1=O)OCc1ccccc1)OCc1ccccc1 (some centres unmarked)
Reply: 88.3

Ask: May I ask what CC50 has been recorded for CCCCCCCCCCCCCCCCCCOC[C@H](COP(=O)(CO[C@H](CO)Cn1cnc2c(N)ncnc21)OCc1ccccc1)OCc1ccccc1 (some centres unmarked) ?
Reply: 82.2
